B1: TPR t1 (parent)
chain: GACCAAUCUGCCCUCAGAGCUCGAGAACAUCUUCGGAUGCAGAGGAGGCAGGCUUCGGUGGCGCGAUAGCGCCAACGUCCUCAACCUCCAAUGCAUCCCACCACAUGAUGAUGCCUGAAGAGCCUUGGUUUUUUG

# Variants of: B1
# Run Description: polymerase ribozyme fitness, log enrichment relative to wild type (log ratio); higher = more active; in vitro selection for triplet polymerase activity
Measured Metric: polymerase ribozyme fitness (log ratio)

* C12U G122U | 1.06
* C12U A27G G69A C88A U125G | -3.8
* U9G A27G A37U | -0.779
* G45C U55C A75U A95G U126A U129A | -4.26
* G45U G60C C88G | -1.14
* A111C | 0.388
* G51U G52U C56A U78A | -3.39
* A5G C22A A119G | -4.13
* G45U G69U A119U | -0.819
* G23C C34U U38A A46U C86G G110C | -8.09
* C56A C73U A84U G120U | -1.05
* C56A U78A | 0.796
* C56G U96G | -1.51
* U9G G51C C56G C62U C80G A119U | -0.0854
* C28U C73G G93C | -3.34
* G63A A121C G135A | 0.83
* C11G A37C G61U | -0.241
* C49U C62U C114G G117C U125C U129C | -7.74
* U32C A46G U109A | -3.86
* C115A | -0.202
* G77A A83U A84C C86A C101U G117C | -6.46
* U67C C94A C123U | -6.04
* A27C G47U G63A C86U | -6.59
* C12A C40A | -2.34
* C53U G120A U130A | 0.491
* A6G A46U U54G | -1.68
* C11A C15G U21G G63U A90U G93U C115U C124U G127U | -6.26
* C31U G47U | -6.27
* C8A C12A G39A | -0.403
* A6U G60A C82G C101U G120A G128U | -2.36
* C20U C114U | -1.66
* G63A A90C | -2.84
* U7G C8A C56A C124U U129A | -0.245
* G45A U78C C86A G120U | -2.19
* C40A C82G | -1.95
* A37C G60A C102A | -3.1
* C56U G77A | 0.388
* G45U C124A | 0.716
* A68C | -6.94
* C70A U106C U129A | -2.95
* C64U C86A | -1.42
* C12A G57U G71U | -0.629
* U112G G127A | -1.12
* C8G C56A U78C G93A C123U | 1.31
* C49U A91C C123A | -1.62
